test: Stability in human plasma
Format: in vitro ADME
condition-details: human, plasma, Stability in plasma, % remaining at 120 min
Catalogue of molecules with associated remaining at 2 h

>  <line-notation>
COC(=O)[C@@]12C[C@@H]1[C@@H](n1cnc3c(NC(C4CC4)C4CC4)nc(Cl)nc31)[C@H](O)[C@@H]2O

>  <remaining at 2 h>
~100%

$$$$

Shifting focus to the molecule that follows.
Task: Look up remaining at 2 h for this molecule: `CNC(=O)[C@@]12C[C@@H]1[C@@H](n1cnc3c(NC(C4CC4)C4CC4)nc(Cl)nc31)[C@H](O)[C@@H]2O`
Result: ~100%

====

measured-target: UniProt:P28335
Sequence (P28335 33-458): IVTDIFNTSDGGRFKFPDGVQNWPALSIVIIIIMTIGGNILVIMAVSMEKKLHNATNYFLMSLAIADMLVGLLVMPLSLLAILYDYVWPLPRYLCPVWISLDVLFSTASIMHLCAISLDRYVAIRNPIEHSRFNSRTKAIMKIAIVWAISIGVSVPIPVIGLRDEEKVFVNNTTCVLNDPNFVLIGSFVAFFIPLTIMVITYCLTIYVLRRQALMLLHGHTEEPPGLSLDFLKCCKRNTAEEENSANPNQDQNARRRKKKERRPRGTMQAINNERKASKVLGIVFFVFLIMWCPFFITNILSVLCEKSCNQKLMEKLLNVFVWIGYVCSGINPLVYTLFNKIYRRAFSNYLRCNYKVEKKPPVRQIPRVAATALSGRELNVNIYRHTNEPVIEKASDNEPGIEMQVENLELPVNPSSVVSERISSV
test: 5HT2CR radioligand binding, [3H]mesulergine 44, Flp IN HEK cell membranes
condition-details: 5HT2CR Ki, mean ± SEM; ^d n = 1
Catalogue of molecules with associated Ki
Only the number, expressed in nM, is required.

>  <molecule>
NCCCNC(=O)[C@@]12C[C@@H]1[C@@H](n1cnc3c(NC(C4CC4)C4CC4)nc(Cl)nc31)[C@H](O)[C@@H]2O [compound 32]

>  <unit-annotation>
nM

>  <Ki>
137

$$$$

Shifting focus to the molecule that follows.
Task: Look up Ki for this molecule: NCCNC(=O)[C@@]12C[C@@H]1[C@@H](n1cnc3c(NC(C4CC4)C4CC4)nc(Cl)nc31)[C@H](O)[C@@H]2O [compound 31]
Result: 142

====

Catalogue of compounds with associated Ki
measured-target: 5HT2BR (Homo sapiens)
Sequence (P41595 whole entry): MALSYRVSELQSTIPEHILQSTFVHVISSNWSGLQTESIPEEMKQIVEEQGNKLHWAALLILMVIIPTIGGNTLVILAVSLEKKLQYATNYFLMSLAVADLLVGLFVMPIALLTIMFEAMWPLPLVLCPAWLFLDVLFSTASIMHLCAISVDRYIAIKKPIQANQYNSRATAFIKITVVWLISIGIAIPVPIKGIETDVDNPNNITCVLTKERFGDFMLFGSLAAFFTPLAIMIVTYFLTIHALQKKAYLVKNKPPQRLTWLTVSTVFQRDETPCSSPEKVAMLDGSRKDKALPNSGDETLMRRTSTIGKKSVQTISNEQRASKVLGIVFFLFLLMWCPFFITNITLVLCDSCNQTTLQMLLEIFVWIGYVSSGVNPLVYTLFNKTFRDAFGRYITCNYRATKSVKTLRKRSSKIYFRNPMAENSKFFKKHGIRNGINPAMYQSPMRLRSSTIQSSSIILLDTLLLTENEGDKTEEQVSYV
Only the number, expressed in nM, is required.

>  <compound>
NCCNC(=O)[C@@]12C[C@@H]1[C@@H](n1cnc3c(NC(C4CC4)C4CC4)nc(Cl)nc31)[C@H](O)[C@@H]2O [compound 31]

>  <observed-result>
630

$$$$

Shifting focus to the compound that follows.
Task: Notebook entry, 5HT2BR (Homo sapiens) assay: Ki of NCCCNC(=O)[C@@]12C[C@@H]1[C@@H](n1cnc3c(NC(C4CC4)C4CC4)nc(Cl)nc31)[C@H](O)[C@@H]2O [compound 32] = ?
Result: 1120

====

test: Cytotoxicity in HepG2 cells
Assay type: cell-based
condition-details: human
observation-type: CC50

>  <molecule>
COC(=O)[C@@]12C[C@@H]1[C@@H](n1cnc3c(NC(C4CC4)C4CC4)nc(Cl)nc31)[C@H](O)[C@@H]2O [compound 25]

>  <CC50>
> 30 µM

$$$$

Shifting focus to the molecule that follows.
Task: Look up CC50 for this molecule: CNC(=O)[C@@]12C[C@@H]1[C@@H](n1cnc3c(NC(C4CC4)C4CC4)nc(Cl)nc31)[C@H](O)[C@@H]2O [compound 23]
Result: > 30 µM

====

test: CACO cell permeability
Format: in vitro ADME
condition-details: human, Caco-2
observation-type: Papp B→A (×10⁻⁶ cm/s)
Only the number, expressed in ×10⁻⁶ cm/s, is required.

Task: Look up Papp B→A for this compound: CNC(=O)[C@@]12C[C@@H]1[C@@H](n1cnc3c(NC(C4CC4)C4CC4)nc(Cl)nc31)[C@H](O)[C@@H]2O [compound 23]
Result: 46.2
